# Assay system: UniProt:P33032
# Sequence (P33032 whole entry): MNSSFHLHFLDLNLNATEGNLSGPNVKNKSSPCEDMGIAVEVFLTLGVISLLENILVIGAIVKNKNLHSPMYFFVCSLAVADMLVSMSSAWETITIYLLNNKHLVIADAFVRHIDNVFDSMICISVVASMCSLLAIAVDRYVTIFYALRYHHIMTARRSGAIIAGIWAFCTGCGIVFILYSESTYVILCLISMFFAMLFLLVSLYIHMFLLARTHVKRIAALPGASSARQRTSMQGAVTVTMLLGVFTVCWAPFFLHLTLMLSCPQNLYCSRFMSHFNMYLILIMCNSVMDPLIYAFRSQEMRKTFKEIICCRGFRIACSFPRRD
# Assay type: cell membranes, HEK293, Membrane
# Run parameters: hek293
Outcome measure: IC50

CCCNCC(O)COc1ccccc1C(=O)CCc1ccccc1 (stereo not given)
Not Active
COc1ccc(C(=O)N2CCCC2=O)cc1
Not Active
O=C1O[C@H]([C@@H](O)CO)C(O)=C1O
Not Active
O=C(Nc1ccc(Br)cc1)c1cc(Br)cc(Br)c1O
Not Active
O=C(c1ccccc1C(F)(F)F)N1CCC(Cc2ccccc2)CC1
Not Active

Input: Endpoint output: IC50 of Nc1ccn([C@@H]2O[C@H](CO)[C@@H](O)C2(F)F)c(=O)n1 . Value?
Output: Not Active

Input: Endpoint output: IC50 of CC(C(=O)O)c1ccc2oc(-c3ccc(Cl)cc3)nc2c1 (stereo not given) . Value?
Output: Not Active

Input: Endpoint output: IC50 of N#Cc1ccc(C(c2ccc(C#N)cc2)n2cncn2)cc1 . Value?
Output: Not Active

Input: Endpoint output: IC50 of CS(=O)(=O)c1ccc([C@@H](O)[C@@H](CO)NC(=O)C(Cl)Cl)cc1 . Value?
Output: Not Active

Input: Endpoint output: IC50 of CN(C)CCOC(c1ccccc1)c1ccccc1 [DIPHENHYDRAMINE] . Value?
Output: Not Active

====

# Assay system: Estrogen receptor (Homo sapiens, UniProt P03372); also: in other assays of this panel Not Active means under 50% inhibition at 10 µM
# Sequence (P03372 whole entry): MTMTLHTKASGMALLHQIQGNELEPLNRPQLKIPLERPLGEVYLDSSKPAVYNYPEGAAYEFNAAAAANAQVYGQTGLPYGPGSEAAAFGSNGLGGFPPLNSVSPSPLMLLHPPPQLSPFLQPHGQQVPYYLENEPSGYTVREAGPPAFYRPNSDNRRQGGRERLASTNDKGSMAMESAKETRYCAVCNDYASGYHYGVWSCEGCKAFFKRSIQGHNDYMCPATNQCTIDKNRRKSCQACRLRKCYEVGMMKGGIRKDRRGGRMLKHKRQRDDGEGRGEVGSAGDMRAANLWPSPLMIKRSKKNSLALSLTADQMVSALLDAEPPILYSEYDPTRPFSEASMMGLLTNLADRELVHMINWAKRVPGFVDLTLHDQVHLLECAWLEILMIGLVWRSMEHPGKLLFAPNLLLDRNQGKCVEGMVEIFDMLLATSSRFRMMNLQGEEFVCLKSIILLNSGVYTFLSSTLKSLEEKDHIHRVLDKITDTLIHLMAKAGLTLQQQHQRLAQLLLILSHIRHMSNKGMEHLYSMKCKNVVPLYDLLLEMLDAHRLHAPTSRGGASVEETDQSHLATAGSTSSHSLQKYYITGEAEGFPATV
# Run parameters: sf9
Outcome measure: IC50

Answered cases to consult:
GADOPENTETATE DIMEGLUMINE
Not Active
NYSTATIN
Not Active
AURANOFIN
Not Active
GRAMICIDIN
Not Active
MANGANESE CHLORIDE ANHYDROUS
Not Active

Input: Endpoint output: IC50 of GENTAMICIN . Value?
Output: Not Active

Input: Endpoint output: IC50 of SODIUM ORTHOVANAD . Value?
Output: Not Active

====

# Assay name: DRUGMATRIX: Calcium Channel Type L, Benzothiazepine radioligand binding (ligand: [3H] Diltiazem)
# Type: cell membranes, Rattus norvegicus, Wistar, Brain, Membrane
# Run parameters: Not Active = under 50% inhibition at 10 µM; read-out: IC50
The entries below come with measured pIC50 values attached.
Note on pIC50: it is the negative log10 of concentration, concentration in mol/L.

Input: Endpoint output: pIC50 of CCCNCC(O)COc1ccccc1C(=O)CCc1ccccc1 (configuration not stated) [PROPAFENONE] . Value?
Output: 6.11

Input: Endpoint output: pIC50 of COc1ccc(CCN(C)CCCC(C#N)(c2ccc(OC)c(OC)c2)C(C)C)cc1OC (configuration not stated) . Value?
Output: 7.85

Input: Endpoint output: pIC50 of Cc1cc2c(OCC(CNC(C)(C)C)OC(=O)c3ccccc3)cccc2[nH]1 (configuration not stated) [BOPINDOLOL] . Value?
Output: 5.55

Input: Endpoint output: pIC50 of CN(C)CC[C@@H](c1ccc(Cl)cc1)c1ccccn1 [DEXCHLORPHENIRAMINE] . Value?
Output: 5.21

Input: Endpoint output: pIC50 of CC[C@H]1CN2CCc3cc(OC)c(OC)cc3[C@@H]2C[C@@H]1C[C@H]1NCCc2cc(OC)c(OC)cc21 [EMETINE] . Value?
Output: 5.63

Input: Endpoint output: pIC50 of Cc1c(C)c2c(c(C)c1O)CCC(C)(CN1CCN(c3cc(N4CCCC4)nc(N4CCCC4)n3)CC1)O2 (configuration not stated) . Value?
Output: 5.78

Input: Endpoint output: pIC50 of COc1cc(N)c(Cl)cc1C(=O)NC1CCN(CCCOc2ccc(F)cc2)CC1OC (configuration not stated) [CISAPRIDE] . Value?
Output: 6.10

====

# Assay system: Muscarinic acetylcholine receptor M2 (Homo sapiens, UniProt P08172); also: in other assays of this panel Not Active means under 50% inhibition at 10 µM
# Sequence (P08172 whole entry): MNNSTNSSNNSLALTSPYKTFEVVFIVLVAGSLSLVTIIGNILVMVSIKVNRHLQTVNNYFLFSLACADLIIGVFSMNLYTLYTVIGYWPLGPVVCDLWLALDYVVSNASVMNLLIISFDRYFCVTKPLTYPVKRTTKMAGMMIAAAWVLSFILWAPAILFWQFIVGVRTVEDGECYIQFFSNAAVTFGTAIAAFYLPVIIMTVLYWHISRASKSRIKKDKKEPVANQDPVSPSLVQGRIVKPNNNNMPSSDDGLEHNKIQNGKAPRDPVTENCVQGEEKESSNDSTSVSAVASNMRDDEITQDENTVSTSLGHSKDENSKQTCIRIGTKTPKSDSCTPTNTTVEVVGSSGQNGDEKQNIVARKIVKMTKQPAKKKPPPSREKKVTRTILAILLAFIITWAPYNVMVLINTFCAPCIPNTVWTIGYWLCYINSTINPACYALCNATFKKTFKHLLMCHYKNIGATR
# Assay type: cell membranes, CHO-K1, Membrane
# Run parameters: read-out: Ki
The entries below come with measured pKi values attached.
Note on pKi: it is the negative log10 of concentration, concentration in mol/L.

Answered cases to consult:
CN(C)CC[C@@H](c1ccc(Cl)cc1)c1ccccn1 [DEXCHLORPHENIRAMINE]
5.60
CN[C@H]1CC[C@@H](c2ccc(Cl)c(Cl)c2)c2ccccc21 [SERTRALINE]
6.01

From here, focus on the item given below.
Input: Endpoint output: pKi of OC(CCCN1CCCCC1)(c1ccccc1)c1ccccc1 [DIPHENIDOL] . Value?
Output: 6.56

====

# Assay system: Substance-K receptor (Homo sapiens); also: in other assays of this panel Not Active means under 50% inhibition at 10 µM
# Sequence (P21452 whole entry): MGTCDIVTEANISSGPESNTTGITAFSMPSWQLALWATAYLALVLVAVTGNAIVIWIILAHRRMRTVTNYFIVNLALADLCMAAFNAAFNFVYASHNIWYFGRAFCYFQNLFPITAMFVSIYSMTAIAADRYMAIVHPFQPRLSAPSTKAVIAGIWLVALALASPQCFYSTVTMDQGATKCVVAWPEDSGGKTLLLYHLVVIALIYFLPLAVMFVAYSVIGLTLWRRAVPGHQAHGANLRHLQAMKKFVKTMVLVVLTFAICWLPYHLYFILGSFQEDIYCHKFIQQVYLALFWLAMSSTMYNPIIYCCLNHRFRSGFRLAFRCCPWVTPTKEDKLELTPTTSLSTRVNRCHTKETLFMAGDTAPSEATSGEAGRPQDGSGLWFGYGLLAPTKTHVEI
# Assay type: cell membranes, CHO, Membrane
# Run parameters: cho
Outcome measure: IC50

CCCCNc1ccc(C(=O)OCCN(C)C)cc1
Not Active
CN(C/C=C/C#CC(C)(C)C)Cc1cccc2ccccc12
Not Active
COc1c2occc2cc2ccc(=O)oc12
Not Active

====

# Assay system: D(4) dopamine receptor (Homo sapiens)
# Sequence (P21917 whole entry): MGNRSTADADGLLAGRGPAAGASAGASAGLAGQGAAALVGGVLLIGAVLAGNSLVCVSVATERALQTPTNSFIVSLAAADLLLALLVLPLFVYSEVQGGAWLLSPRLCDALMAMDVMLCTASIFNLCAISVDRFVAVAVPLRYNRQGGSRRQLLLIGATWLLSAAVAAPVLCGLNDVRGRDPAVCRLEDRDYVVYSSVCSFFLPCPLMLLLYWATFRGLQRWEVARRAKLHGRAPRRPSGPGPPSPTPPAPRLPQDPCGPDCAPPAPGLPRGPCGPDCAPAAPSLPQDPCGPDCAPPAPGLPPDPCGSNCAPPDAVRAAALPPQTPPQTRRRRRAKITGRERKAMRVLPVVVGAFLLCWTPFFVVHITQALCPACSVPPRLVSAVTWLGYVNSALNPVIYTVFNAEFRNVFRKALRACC
# Assay name: DRUGMATRIX: Dopamine D4.2 radioligand binding (ligand: [3H] Spiperone)
# Type: cell membranes, CHO-K1, Membrane
# Run parameters: cho-k1; Not Active = under 50% inhibition at 10 µM; read-out: Ki
Outcome measure: pKi
Note on pKi: it is the negative log10 of concentration, concentration in mol/L.

Input: Endpoint output: pKi of AURANOFIN . Value?
Output: 6.40

====

# Assay system: Beta-3 adrenergic receptor (Homo sapiens)
# Sequence (P13945 whole entry): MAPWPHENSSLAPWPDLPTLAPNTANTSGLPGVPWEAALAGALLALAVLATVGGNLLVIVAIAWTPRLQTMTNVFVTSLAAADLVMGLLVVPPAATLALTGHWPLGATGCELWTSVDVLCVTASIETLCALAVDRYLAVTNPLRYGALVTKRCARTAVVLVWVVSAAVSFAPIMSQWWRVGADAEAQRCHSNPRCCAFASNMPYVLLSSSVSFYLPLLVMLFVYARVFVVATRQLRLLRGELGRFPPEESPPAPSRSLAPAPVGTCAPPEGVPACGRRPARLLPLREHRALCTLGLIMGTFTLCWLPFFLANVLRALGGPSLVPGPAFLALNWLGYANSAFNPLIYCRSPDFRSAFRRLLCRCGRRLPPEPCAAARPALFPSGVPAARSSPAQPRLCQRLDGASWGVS
# Assay name: DRUGMATRIX: Adrenergic beta3 radioligand binding (ligand: [125I] Cyanopindolol)
# Assay type: cell membranes, HEK293, Membrane
# Run parameters: Not Active = under 50% inhibition at 10 µM; read-out: IC50
Outcome measure: IC50 (µM)
Write the value in µM as a bare number.

Cc1cc2c(OCC(CNC(C)(C)C)OC(=O)c3ccccc3)cccc2[nH]1 (stereo not drawn) [BOPINDOLOL]
0.458
CCN(CC)CCOc1ccc(/C(=C(/Cl)c2ccccc2)c2ccccc2)cc1 [ENCLOMIPHENE]
5.67

From here, focus on the item given below.
Input: So what IC50 did Clc1ccc(COC(Cn2ccnc2)c2ccc(Cl)cc2Cl)cc1 (stereo not drawn) [ECONAZOLE] get with Beta-3 adrenergic receptor (Homo sapiens)?
Output: 6.15

====

# Assay system: Beta-1 adrenergic receptor (Homo sapiens, UniProt P08588)
# Sequence (P08588 whole entry): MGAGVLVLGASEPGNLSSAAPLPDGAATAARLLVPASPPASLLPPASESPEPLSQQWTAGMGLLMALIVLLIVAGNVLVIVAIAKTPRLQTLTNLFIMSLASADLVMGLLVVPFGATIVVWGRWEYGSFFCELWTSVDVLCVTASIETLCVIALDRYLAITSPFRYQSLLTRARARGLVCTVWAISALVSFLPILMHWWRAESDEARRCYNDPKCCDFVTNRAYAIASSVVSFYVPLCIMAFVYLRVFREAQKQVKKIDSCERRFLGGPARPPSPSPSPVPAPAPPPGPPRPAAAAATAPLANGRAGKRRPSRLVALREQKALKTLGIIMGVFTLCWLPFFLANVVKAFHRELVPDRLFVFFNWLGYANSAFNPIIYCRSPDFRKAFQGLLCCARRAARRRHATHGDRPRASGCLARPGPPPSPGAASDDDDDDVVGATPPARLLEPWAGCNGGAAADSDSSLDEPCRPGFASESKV
# Assay name: DRUGMATRIX: Adrenergic beta1 radioligand binding (ligand: [125I] Cyanopindolol)
# Assay type: cell membranes, CHO-K1, Membrane
# Run parameters: cho-k1; Not Active = under 50% inhibition at 10 µM
Outcome measure: IC50

CO[C@@H]1[C@@H](OC)[C@H](C)[C@@](O)(CC(=O)O)O[C@H]1[C@H](C)[C@H]1O[C@@]2(CC[C@@](C)([C@H]3CC[C@@](C)([C@@H]4O[C@@H]([C@H]5O[C@](C)(O)[C@H](C)C[C@@H]5C)C[C@@H]4O[C@@H]4C[C@H](OC)[C@@H](OC)[C@H](C)O4)O3)O2)C[C@H](O)[C@H]1C
Not Active
COC1=C(OC)C(=O)C(CCCCCCCCCCO)=C(C)C1=O
Not Active

====

# Assay system: Sigma non-opioid intracellular receptor 1 (Homo sapiens, UniProt Q99720)
# Sequence (Q99720 whole entry): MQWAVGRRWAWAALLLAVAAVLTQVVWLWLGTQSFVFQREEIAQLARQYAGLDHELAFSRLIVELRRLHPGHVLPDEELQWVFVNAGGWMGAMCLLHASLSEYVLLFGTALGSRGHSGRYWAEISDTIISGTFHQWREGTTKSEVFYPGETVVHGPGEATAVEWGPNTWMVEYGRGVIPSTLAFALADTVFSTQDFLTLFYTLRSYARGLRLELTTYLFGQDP
# Assay name: DRUGMATRIX: Sigma1 radioligand binding (ligand: [3H] Haloperidol)
# Assay type: cell membranes, Jurkat, Membrane
# Run parameters: jurkat; Not Active = under 50% inhibition at 10 µM
Outcome measure: IC50

Cn1c(=O)c2nc[nH]c2n(C)c1=O.O
Not Active
CO[C@@H]1[C@@H](OC)[C@H](C)[C@@](O)(CC(=O)O)O[C@H]1[C@H](C)[C@H]1O[C@@]2(CC[C@@](C)([C@H]3CC[C@@](C)([C@@H]4O[C@@H]([C@H]5O[C@](C)(O)[C@H](C)C[C@@H]5C)C[C@@H]4O[C@@H]4C[C@H](OC)[C@@H](OC)[C@H](C)O4)O3)O2)C[C@H](O)[C@H]1C
Not Active
NNc1nncc2ccccc12 [HYDRALAZINE]
Not Active

====

# Assay system: Carbonic anhydrase 2 (Homo sapiens)
# Assay name: DRUGMATRIX: Carbonic Anhydrase II enzyme inhibition (substrate: 4-Nitrophenyl acetate (4-NPA))
# Type: tissue-based
# Run parameters: erythrocyte; Not Active = under 50% inhibition at 10 µM
Outcome measure: IC50

Answered cases to consult:
CS(=O)(=O)c1ccc([C@@H](O)[C@@H](CO)NC(=O)C(Cl)Cl)cc1 [THIAMPHENICOL]
Not Active
Nc1ccn([C@@H]2O[C@H](CO)[C@@H](O)C2(F)F)c(=O)n1 [GEMCITABINE]
Not Active
CCN(CC)CC(=O)Nc1c(C)cccc1C [LIDOCAINE]
Not Active
COC(=O)CCc1ccc(OCC(O)CNC(C)C)cc1 (stereo not given) [ESMOLOL]
Not Active

From here, focus on the item given below.
Input: Endpoint output: IC50 of CC(C)NCC(O)c1ccc(NS(C)(=O)=O)cc1 (stereo not given) [SOTALOL] . Value?
Output: Not Active
